System: P. falciparum
Assay: In vitro anti-malarial activity, [3H]-hypoxanthine incorporation assay
Assay type: cell-based
Conditions: Plasmodium falciparum; P. falciparum, in vitro; read-out: IC50 (anti-malarial activity)
Protocol: The in vitro anti-malarial activity was measured using the [3H]-hypoxanthine incorporation assay with various strains of P. falciparum (Roche). Results were expressed as the concentration corresponding to 50% inhibition. The anti-malarial assays were performed at the Swiss Tropical Institute, Basel, Switzerland.
Attribute Measured: IC50

Recorded IC50, per entry:
O=CN1CCN(CC(O)COc2ccc(OCC(O)CN3CCN(C=O)CC3)cc2)CC1 (stereo not shown)	> 20 µM
CC(C)(C)c1cnnn1-c1ccc(C=Cc2ccc(C=Cc3ccc4ccccc4n3)cc2)cc1	> 20 µM
Cc1ccc(C)c(NCC(O)COc2ccc(OCC(O)CNc3cc(C)ccc3C)cc2)c1 (stereo not shown)	10.3 µM

Form field IC50, entry Cc1cccc[n+]1CCCCCCCCCC[n+]1ccccc1C : 0.027 µM

Form field IC50, entry Cc1cccc(C)c1OCCOCC(O)CN1CCN(Cc2ccc3c(c2)OCO3)CC1 (stereo not shown) : 18.9 µM

Form field IC50, entry Cc1ccc(Cn2cc(CCC(=O)NCCCN3CC(C)CC(C)C3)c3ccccc32)cc1 (stereo not shown) : 0.999 µM

Form field IC50, entry CC(NC(=O)CN1CCCN(CC(=O)NC(C)(C)C)CC1)c1ccc2c(c1)CCCC2 (stereo not shown) : 12.5 µM

Form field IC50, entry CC(C)(C)CC(C)(C)Cc1ccc(OCCOCC[N+](C)(C)Cc2ccccc2)cc1 : 0.185 µM

Form field IC50, entry Cc1ccc2c(c1)N(CCCC(=O)NCCCN1CCC(Cc3ccccc3)CC1)C(=O)CO2 : 3.52 µM

Form field IC50, entry CC1=C(CCC(C)N(C)Cc2ccc(OCCCN3CCCC3)cc2)C(C)(C)CCC1 (stereo not shown) : 0.332 µM

###

Parameter: Average Cytotoxicity. Scope: all listed entries.
tested on: mammalian cytotoxicity; assay: Toxicity assay, colorimetric MTT assay (mammalian cytotoxicity); assay type: cell-based; settings: data from two independent assays
Express the result in ng/mL but write the number alone.

Recorded Average Cytotoxicity, per entry:
Cc1ccc(Cn2cc(CCC(=O)NCCCN3CC(C)CC(C)C3)c3ccccc32)cc1 (stereo not shown)	10420
COc1cc([C@@H]2c3cc4c(cc3[C@H](O)[C@H]3COC(=O)[C@H]23)OCO4)cc(OC)c1OC [Podophyllotoxin, reference compound]	9.5
CC1=C(CCC(C)N(C)Cc2ccc(OCCCN3CCCC3)cc2)C(C)(C)CCC1 (stereo not shown)	4860

Form field Average Cytotoxicity, entry CC(C)(C)CC(C)(C)Cc1ccc(OCCOCC[N+](C)(C)Cc2ccccc2)cc1 : 3250

The reported numbers originate from paper PMC3206494.
